tested on: HeLa MZ; test: LBPA endosome anti-LBPA integrated intensity (sum per cell), Z-score; higher = more LBPA staining; settings: compound concentration in added solution (µM; 5 µl added to 20 µl cells): 10; 18 h
Structures can show the parent of a compound that is named as a salt.
// reported LBPA endosome anti-LBPA integrated intensity (z-score) for each item listed
measurementType: LBPA endosome anti-LBPA integrated intensity (z-score)

INSERT INTO assay_data (compound, measvalue) VALUES
  ('Cc1c(NC(=O)c2cccnc2)c(=O)n(-c2ccccc2)n1C', -0.887),
  ('CC(C)NC(=N)NC(=N)Nc1ccc(Cl)cc1 [Proguanil hydrochloride]', 1.15),
  ('CC(C)(Oc1ccc(Cl)cc1)C(=O)O', -0.676),
  ('OCCN1CCN(CCCN2c3ccccc3Sc3ccc(Cl)cc32)CC1', 0.966),
  ('C[C@H](CCC(=O)O)[C@H]1CC[C@H]2[C@@H]3[C@@H](O)C[C@@H]4C[C@H](O)CC[C@]4(C)[C@H]3CC[C@]12C', -1.19),
  ('CNCCCN1c2ccccc2CCc2ccccc21 [Desipramine hydrochloride]', 0.947),
  ('Cc1cc(N)c2ccccc2[n+]1CCCCCCCCCC[n+]1c(C)cc(N)c2ccccc21 [Dequalinium dichloride]', 0.0986),
  ('CC[C@H]1OC(=O)[C@H](C)[C@@H](O[C@H]2C[C@@](C)(OC)[C@@H](O)[C@H](C)O2)[C@H](C)[C@@H](O[C@@H]2O[C@H](C)C[C@H](N(C)C)[C@H]2O)[C@](C)(O)C[C@@H](C)[C@@H]2N[C@@H](COCCOC)O[C@H]([C@H]2C)[C@]1(C)O', -0.0354),
  ('Cc1cccc(C)c1NC(=O)C(C)N (stereo unspecified) [Tocainide hydrochloride]', -0.526),
  ('COc1ccc2cc(CCC(C)=O)ccc2c1', 0.891),
  ('CN(C)/N=N/c1[nH]cnc1C(N)=O', -0.605),
  ('CC1(C)O[C@@H]2C[C@H]3[C@@H]4CCC5=CC(=O)CC[C@]5(C)[C@@]4(F)[C@@H](O)C[C@]3(C)[C@]2(C(=O)CCl)O1 [Halcinonide]', -0.708),
  ('CCCCNc1c(C(=O)OCC)c(C)nc2c1cnn2CC [Tracazolate hydrochloride]', 1.37),
  ('CC(=O)OCC(=O)[C@@]1(O)CC[C@H]2[C@@H]3CCC4=CC(=O)CC[C@]4(C)[C@H]3[C@@H](O)C[C@@]21C [Cortisol acetate]', -0.845),
  ('NS(=O)(=O)c1cc2c(cc1Cl)NC(C(Cl)Cl)NS2(=O)=O (stereo unspecified) [Trichlormethiazide]', 0.0655),
  ('CN(C)c1nc(N(C)C)nc(N(C)C)n1', -1.33);

* * *

system: HeLa MZ; test: LBPA endosome anti-LBPA integrated intensity (sum per cell), Z-score; higher = more LBPA staining; settings: compound concentration in added solution (µM; 5 µl added to 20 µl cells): 10; 18 h
Structures can show the parent of a compound that is named as a salt.
Lab note: compare LBPA endosome anti-LBPA integrated intensity (z-score) against 0.06. Equal or greater, write T. Smaller, write F.

INSERT INTO measurements (compound, grouplabel) VALUES
  ('CN1CCC[C@@H]1CCO[C@](C)(c1ccccc1)c1ccc(Cl)cc1 [Clemastine fumarate]', 'T'),
  ('O=c1[nH]c(=O)n([C@H]2C[C@H](O)[C@@H](CO)O2)cc1I', 'T'),
  ('CC(C)(C)NC[C@H](O)COc1nsnc1N1CCOCC1 [Timolol maleate salt]', 'F'),
  ('CN1CCN(C2=Nc3ccccc3Oc3ccc(Cl)cc32)CC1 [Loxapine succinate]', 'T'),
  ('Cn1nnnc1SCC1=C(C(=O)O)N2C(=O)[C@@H](NC(=O)[C@H](O)c3ccccc3)[C@H]2SC1 [Cefamandole sodium salt]', 'F'),
  ('CN(C)CCC(c1ccccc1)c1ccccn1 (stereo not drawn) [Pheniramine maleate]', 'T'),
  ('CN1CCN(CCCN2c3ccccc3Sc3ccc(C(F)(F)F)cc32)CC1 [Trifluoperazine dihydrochloride]', 'F'),
  ('N=C(N)c1ccc(OCCCCCOc2ccc(C(=N)N)cc2)cc1 [Pentamidine isethionate]', 'F');
